# Tested on: RPMI-8226
# EXPERIMENT: NCI tumour cell line growth inhibition, 48 h
The source made the active and inactive calls. Cut-off read from the data, not from the text of the source: active = GI50 up to about 1.1 µM and inactive = higher.
READOUT LABEL: GI50

[[record]]
compound = "CC1=C2C(=O)O[C@@H](c3ccoc3)[C@]2(C)CCC1=O"
endpoint_value = "> 100 µM (inactive)"


Hi! What's the reported GI50 for O=C(c1nc2ccc(Cl)cc2[nH]c1=O)C(O)c1cccc([N+](=O)[O-])c1 (stereo not given) on RPMI-8226?
9.66 µM (inactive)

Lookup: GI50 / RPMI-8226 / COC(=O)c1nc(-c2ccc(Cl)c(Cl)c2)nc2ccccc12
> 28.9 µM (inactive)

----------
# key: entry, value: GI50
# Tested on: IGROV-1
# EXPERIMENT: NCI tumour cell line growth inhibition, 48 h
Calls of active or inactive are those of the source. Cut-off read from the data, not from the text of the source: active = GI50 up to about 1.1 µM and inactive = higher.

// known answers, use as guide
[[record]]
compound = "CN1NC2(CCCCC2)ON=C1c1ccccc1"
endpoint_value = "> 100 µM (inactive)"

[[record]]
compound = "COc1ccc(/C=C2\\CCC(C)(CN(C)C)C2=O)cc1 (stereo not drawn)"
endpoint_value = "> 100 µM (inactive)"


Now for another entry.
Can you share its GI50? I mean this compound: CC1=C(CO)C(=O)O[C@@H]([C@@H](C)[C@H]2CC[C@H]3[C@@H]4C[C@@H](O)[C@@]5(O)CC=CC(=O)[C@]5(C)[C@H]4CC[C@]23C)C1
15.1 µM (inactive)

----------
# System: NCI-H23
# EXPERIMENT: NCI tumour cell line growth inhibition, 48 h
The source made the active and inactive calls. Cut-off read from the data, not from the text of the source: active = GI50 up to about 1.1 µM and inactive = higher.
A correct response names exactly one class from active, inactive

Reference set, count: 5
[[record]]
molecule = "Nn1c(S)nnc1N/N=C1/C(=O)Nc2ccccc21"
cat = "inactive"

[[record]]
molecule = "O=c1[nH]nc(-c2ccccc2)n1/N=C/c1ccncc1"
cat = "inactive"

[[record]]
molecule = "CC1CCc2sc3nc(S)n(C)c(=O)c3c2C1 (stereo unspecified)"
cat = "inactive"

[[record]]
molecule = "CCCCN(CCCC)C(=O)C(=O)C(C)C(=O)CC (stereo unspecified)"
cat = "inactive"

[[record]]
molecule = "CCOC(=O)C(NCc1ccc2c(c1)OCO2)(NC(=O)c1ccccc1)C(F)(F)F (stereo unspecified)"
cat = "inactive"


Field: outcome | Entry: c1ccc2c(c1)CCc1cc3cc4c(nc3nc1-2)-c1ccccc1CC4
inactive

I would be grateful if you could indicate the recorded call for c1ccc2cc(C3NCCc4nc[nH]c43)ccc2c1 (stereo unspecified) .
inactive

In this assay, the call recorded for Cc1cc(Cl)ccc1NC(=O)C1C(=O)N(c2ccc(Cl)cc2C)C(=O)/C1=N\NC(N)=S (stereo unspecified) was what?
inactive

Lab log entry: CO[C@H]1[C@@H](O)[C@@H](C)O[C@@H](O[C@H]2CC[C@@]3(C)[C@H](CC[C@@H]4[C@@H]3CC[C@]3(C)[C@@H](C5=CC(=O)OC5)CC[C@]43O)C2)[C@@H]1O [ODOROSIDE H] — outcome as called in the assay?
active

In this assay, the call recorded for COC(=O)C1=C(C(=O)OC)C(C(=O)OC)C(C(=O)OC)C(C(=O)OC)(C(=O)OC)C(C(=O)OC)=C1C(=O)OC (stereo unspecified) was what?
inactive

Kindly provide the recorded test outcome for the following molecule: CCc1ccc(Nc2ccc([N+](=O)[O-])cc2[N+](=O)[O-])cc1
inactive

How did this test come out for CN1NC2(CCCCC2)ON=C1c1ccccc1 ?
inactive

// return assay outcome for N=C(N)NCCCCCCC(=O)NC(O)C(=O)NCCCCNCCCN (stereo unspecified)
inactive

Short answer needed: outcome of this test for Cc1ccc(/C=C2\CCCC(C(NO)c3ccc(C)cc3)C2=NO)cc1 (stereo unspecified) ?
inactive

Please share the test call associated with C#CCOC(=O)C(N)CC(N)=O (stereo unspecified) .
inactive

Entry O=C(O)/C(Cl)=C(Cl)/C=N/NC(=O)c1cc2ccccc2cc1O : call = ?
inactive

# outcome recorded in this test, key = O=C1C=C(c2[nH]c3ccccc3c2C2=CC(=O)c3ccccc3C2=O)C(=O)c2ccccc21
inactive

Which outcome was assigned to Cc1ccc(NC(=O)C(Cc2c[nH]c3ccccc23)NC(=O)Oc2ccccc2)cc1C (stereo unspecified) in this test?
inactive

Status in this test for C/C=C/C1=CC(=O)C(O)C1O (stereo unspecified) ?
inactive

Hey, what did the test say about CC(=O)Nc1ccc(NC(=O)CC(=O)Nc2ccc(NC(C)=O)cc2)cc1 ?
inactive

Recorded test call requested for O=C1NC(=S)NC(=O)C1=Cc1cccc2cc3ccccc3cc12
inactive
